System: CP250
Assay: qHTS profiling for inhibitors of Plasmodium falciparum proliferation (AID 504749); also: nearly all actives have a fitted effect of over 60% in size; also: potency is read from the fitted curve at half-maximal effect
Conditions: P. falciparum in erythrocytes, SYBR Green DNA, 72 h; series mostly up to 28.7 µM
Records with an inconclusive call do not appear. Calls of active or inactive are those of the source. Calls follow the shape of the dose curve; as a rule, active = well fitted inhibition curve with a large enough effect; inconclusive = small, poorly fitted or top-dose-only effect; inactive = flat fitted curve, though single readings scatter.

{"columns": ["compound", "system-tested", "Potency"],
 "data": [
  ["Cc1ccc(S(=O)(=O)N[C@@H](CCCCN)C(=O)CCl)cc1", "CP250", "7.94 µM (active)"],
  ["CC(C)=CC1C(C(=O)OCc2cccc(Oc3ccccc3)c2)C1(C)C (stereo not drawn)", "CP250", "inactive"],
  ["C#CCOC(C(=O)OCCN(C)C)(c1ccccc1)c1ccccc1", "CP250", "inactive"]
]}

* * *

Experiment: qHTS of pediatric cancer cell lines to identify multiple opportunities for drug repurposing: Primary screen for U-2 OS cells (AID 1347096); also: nearly all actives have a fitted effect of over 50% in size
Conditions: U-2 OS viability, CellTiter-Glo luminescence, 48 h; series mostly up to 46 µM
Inconclusive results are not listed. The source made the active and inactive calls. Calls follow the shape of the dose curve; as a rule, active = well fitted cell-killing curve with a large enough effect; inconclusive = small, poorly fitted or top-dose-only effect; inactive = flat fitted curve, though single readings scatter.
Could you please pick one outcome from this set? true (active), false (inactive)

Please state the recorded outcome for this molecule: `CCCN1CCC[C@@H]2Cc3nc(N)ncc3C[C@H]21`
false

Also, `NCCc1cc(O)c(O)cc1O` please.
false

Also, `C=C1C[C@@H]2[C@H](CC[C@]3(C)C(=O)CC[C@@H]23)[C@@]2(C)C=CC(=O)C=C12` please.
false

Also, `OCCOc1ccccc1` please.
false

Also, CCC(C(N)=O)N1CCCC1=O (centres undefined) please.
false

Also, `CO[C@]12CC[C@@]3(C[C@@H]1[C@](C)(O)C(C)(C)C)[C@@H]1Cc4ccc(O)c5c4[C@@]3(CCN1CC1CC1)[C@H]2O5` please.
true

Also, CNCC(O)c1ccc(O)cc1 (centres undefined) please.
false

Also, O=P1(NCCCl)OCCCN1CCCl (centres undefined) please.
false

Also, `NP(N)(=O)NC(=O)c1ccc(F)cc1` please.
false

Also, CC1NCCOC1c1ccccc1 (centres undefined) please.
false

Also, `NN=C(N)N` please.
false

Also, `CCN(CC)CCN1C(=O)CN=C(c2ccccc2F)c2cc(Cl)ccc21` please.
false

Also, `c1ccc(C2CC2)c(OCC2=NCCN2)c1` please.
false

Also, `Cc1cc(SCc2sc(-c3ccc(C(F)(F)F)c(F)c3)nc2C)ccc1OCC(=O)O` please.
false

Also, Cc1ccc2c(c1)C1CN(C)CCC1N2 (centres undefined) please.
false

Also, CC(C)CC(N(C)C)C1(c2ccc(Cl)cc2)CCC1 (centres undefined) please.
false

Also, `Cc1cccc(C)c1NC1=NCCCS1` please.
false

Also, CC(C)=CC1C(C(=O)OCc2cccc(Oc3ccccc3)c2)C1(C)C (centres undefined) please.
false

Also, `O=c1[nH]c2ccccc2n1CCCN1CCC(n2c(=O)[nH]c3cc(Cl)ccc32)CC1` please.
false

* * *

Conditions: Ebola virus entry assay, green fluorescence channel
Entries with a potency or affinity are not part of this list.
Please go through the items and note down their efficacy.
Dear colleague, please return just the value in %, with no unit written.

For CSc1ccc2c(c1)N(CCC1CCCCN1C)c1ccccc1S2 (configuration not stated) , what is its reported efficacy?
-213

Also, `N[C@@H]1C[C@H]1c1ccccc1` please.
-26.4

Also, `C=C1CC[C@@]2(O)[C@H]3Cc4ccc(O)c5c4[C@@]2(CCN3CC2CC2)[C@H]1O5` please.
46.6

Also, `COc1cc(Nc2c(C#N)cnc3cc(OCCCN4CCN(C)CC4)c(OC)cc23)c(Cl)cc1Cl` please.
56

Also, Clc1ccc(CCC(Cn2ccnc2)Sc2c(Cl)cccc2Cl)cc1 (configuration not stated) please.
-22

Also, `CN1CCN(C(c2ccccc2)c2ccccc2)CC1` please.
84.8

Also, `CCCCN1C[C@H](O)[C@@H](O)[C@H](O)[C@H]1CO` please.
19.9

Also, `CC[N+](CC)(CC)CC` please.
-18.6

Also, `CC12CC3CC(C)(C1)CC(N)(C3)C2` please.
58.3

Also, `N#CC(C#N)=Cc1ccc(O)c(O)c1` please.
-17.1

Also, `NC(=O)NO` please.
10

Also, `CN(C)C(=O)C(CCN1CCC(O)(c2ccc(Cl)cc2)CC1)(c1ccccc1)c1ccccc1` please.
-226

Also, `FC(F)(F)c1cccc(C2=CCN(CCc3ccc4ccccc4c3)CC2)c1` please.
-24.5

Also, `CCCN(CCc1cccs1)[C@H]1CCc2c(O)cccc2C1` please.
-47.6

Also, `CC/C(=C(\c1ccccc1)c1ccc(OCCN(C)C)cc1)c1ccccc1` please.
-205

Also, `CCc1nc(N)nc(N)c1-c1ccc(Cl)cc1` please.
26.9

Also, `NNc1nncc2ccccc12` please.
-27.3

Also, COC(=O)C1=C(C)NC(C)=C(C(=O)OCC(C)C)C1c1ccccc1[N+](=O)[O-] (configuration not stated) please.
55.8

Also, `NC(=O)N/N=C/c1ccc([N+](=O)[O-])o1` please.
31.4

Also, `CC(C)c1c(C(=O)Nc2ccccc2)c(-c2ccccc2)c(-c2ccc(F)cc2)n1CC[C@@H](O)C[C@@H](O)CC(=O)O` please.
32.2

Also, `CCN(CC)C(=O)N[C@@H]1C=C2c3cccc4[nH]cc(c34)C[C@@H]2N(C)C1` please.
16

Also, `N[C@@H](Cc1ccc(N(CCCl)CCCl)cc1)C(=O)O` please.
12.7

Also, Cn1c(=O)c2c(ncn2CC(O)CO)n(C)c1=O (configuration not stated) please.
-15

Also, O=P1(NCCCl)OCCCN1CCCl (configuration not stated) please.
14.4

Also, `OCCN(CCO)c1nc(N2CCCCC2)c2nc(N(CCO)CCO)nc(N3CCCCC3)c2n1` please.
489

Also, `CN/C(=C\[N+](=O)[O-])NCCSCc1ccc(CN(C)C)o1` please.
-12.5

Also, `C[C@](N)(Cc1ccc(O)c(O)c1)C(=O)O` please.
20.7

Also, `O=NN(CCCl)C(=O)NC1CCCCC1` please.
-12.9

Also, `CN(C)CCC[C@@]1(c2ccc(F)cc2)OCc2cc(C#N)ccc21` please.
55

Also, O=C1CCC(N2C(=O)c3ccccc3C2=O)C(=O)N1 (configuration not stated) please.
-16.4

Also, `Cc1oncc1C(=O)Nc1ccc(C(F)(F)F)cc1` please.
-17.5

Also, COc1ccc2nc(S(=O)Cc3ncc(C)c(OC)c3C)[nH]c2c1 (configuration not stated) please.
22.2

* * *

Please go through the items and note down their max response.
Experiment: qHTS Assay for Identifying Gametocytocidal Compounds (AID 743244);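 also: % is scaled to controls: 0 for no effect and ±100 for the full control effect; actives lower the fluorescent signal which means gametocytes are killed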
Conditions: P. falciparum 3D7 stage III-V gametocytes, alamarBlue, 72 h; hits give low values
Inconclusive results are not listed.
Dear colleague, please return just the value in %, with no unit written.

For `N[C@@H](Cc1ccc(N(CCCl)CCCl)cc1)C(=O)O` , what is its reported max response?
7.49

Also, `Clc1cccc(N2CCNCC2)c1` please.
0.639

Also, `FC(F)(F)c1cccc(C2=CCN(CCc3ccc4ccccc4c3)CC2)c1` please.
11.8

* * *

System: P93_24
Test: qHTS profiling for inhibitors of Plasmodium falciparum proliferation (AID 504749); also: nearly all actives have a fitted effect of over 60% in size
Details: P. falciparum in erythrocytes, SYBR Green DNA, 72 h; series mostly up to 28.7 µM
Records with an inconclusive call do not appear. The source made the active and inactive calls. Calls follow the shape of the dose curve; as a rule, active = well fitted inhibition curve with a large enough effect; inconclusive = small, poorly fitted or top-dose-only effect; inactive = flat fitted curve, though single readings scatter.
Could you please pick one outcome from this set? 1.0 for active, 0.0 for inactive

Please state the recorded outcome for this compound: `OCCOc1ccccc1`
0.0

Also, `Fc1ccc(C(OCCN2CCN(CCCc3ccccc3)CC2)c2ccc(F)cc2)cc1` please.
1.0

Also, `COc1ccc(C(=O)c2c(C)n(CCN3CCOCC3)c3ccccc23)cc1` please.
0.0

Also, CC(C)=CC1C(C(=O)OCc2cccc(Oc3ccccc3)c2)C1(C)C (configuration not stated) please.
0.0

Also, O=C(NC(O)C(Cl)(Cl)Cl)NC(O)C(Cl)(Cl)Cl (configuration not stated) please.
0.0

Also, `NCC1(CC(=O)O)CCCCC1` please.
0.0

Also, `CN1CCN(C(=O)O[C@H]2c3nccnc3C(=O)N2c2ccc(Cl)cn2)CC1` please.
0.0

Also, CC1NCCOC1c1ccccc1 (configuration not stated) please.
0.0

Also, `N#CC(C#N)=Cc1ccc(O)c(O)c1` please.
0.0

Also, CC(C)NCC(O)c1ccccc1Cl (configuration not stated) please.
1.0

Also, `CC(=O)Nc1cc([As](=O)(O)O)ccc1O` please.
0.0

Also, `Oc1ccccc1-c1ccccc1` please.
0.0

* * *

Experiment: qHTS of pediatric cancer cell lines to identify multiple opportunities for drug repurposing: Primary screen for SK-N-SH cells (AID 1347098); also: nearly all actives have a fitted effect of over 65% in size
Conditions: SK-N-SH viability, CellTiter-Glo luminescence, 48 h; series mostly up to 57 µM
Inconclusive results are not listed. Activity calls are given as the source filed them. Calls follow the shape of the dose curve; as a rule, active = well fitted cell-killing curve with a large enough effect; inconclusive = small, poorly fitted or top-dose-only effect; inactive = no such curve, though single readings can be large or run the other way.
Could you please pick one outcome from this set? YES (active), NO (inactive)

Please state the recorded outcome for this molecule: `Cc1sc2c(c1C)C(c1ccc(Cl)cc1)=N[C@@H](CC(=O)OC(C)(C)C)c1nnc(C)n1-2`
YES

Also, `CC[N+](CC)(CC)CC` please.
NO

Also, `C[C@H]1O[C@@H](O[C@H]2[C@@H](O)C[C@H](O[C@H]3[C@@H](O)C[C@H](O[C@H]4CC[C@@]5(C)[C@H](CC[C@@H]6[C@@H]5CC[C@]5(C)[C@@H](C7=CC(=O)OC7)CC[C@]65O)C4)O[C@@H]3C)O[C@@H]2C)C[C@H](O)[C@@H]1O` please.
YES

Also, `CCOP(=S)(OCC)Oc1cc(C)nc(C(C)C)n1` please.
NO

Also, `Oc1ccccc1-c1ccccc1` please.
NO

Also, `O=C(O)c1ccc2[nH]cc(CCCCN3CC=C(c4ccccc4)CC3)c2c1` please.
NO

Also, `Cc1ccc(S(=O)(=O)N[C@@H](CCCCN)C(=O)CCl)cc1` please.
NO

Also, `CC(C)(N)Cc1ccc(Cl)cc1` please.
NO

Also, `CN(C)[C@@H]1C(=O)C(C(N)=O)=C(O)[C@@]2(O)C(=O)C3=C(O)c4c(O)cccc4[C@@](C)(O)[C@H]3C[C@@H]12` please.
NO

Also, `C[C@]12CCC(=O)C(O)=C1CC[C@@H]1[C@@H]2CC[C@]2(C)C(=O)CC[C@@H]12` please.
NO

Every entry's value here was drawn from PubChem BioAssay (NCATS).
